Molecular target: Multidrug resistance-associated protein 1 (Homo sapiens, UniProt P33527)
Sequence (P33527 whole entry): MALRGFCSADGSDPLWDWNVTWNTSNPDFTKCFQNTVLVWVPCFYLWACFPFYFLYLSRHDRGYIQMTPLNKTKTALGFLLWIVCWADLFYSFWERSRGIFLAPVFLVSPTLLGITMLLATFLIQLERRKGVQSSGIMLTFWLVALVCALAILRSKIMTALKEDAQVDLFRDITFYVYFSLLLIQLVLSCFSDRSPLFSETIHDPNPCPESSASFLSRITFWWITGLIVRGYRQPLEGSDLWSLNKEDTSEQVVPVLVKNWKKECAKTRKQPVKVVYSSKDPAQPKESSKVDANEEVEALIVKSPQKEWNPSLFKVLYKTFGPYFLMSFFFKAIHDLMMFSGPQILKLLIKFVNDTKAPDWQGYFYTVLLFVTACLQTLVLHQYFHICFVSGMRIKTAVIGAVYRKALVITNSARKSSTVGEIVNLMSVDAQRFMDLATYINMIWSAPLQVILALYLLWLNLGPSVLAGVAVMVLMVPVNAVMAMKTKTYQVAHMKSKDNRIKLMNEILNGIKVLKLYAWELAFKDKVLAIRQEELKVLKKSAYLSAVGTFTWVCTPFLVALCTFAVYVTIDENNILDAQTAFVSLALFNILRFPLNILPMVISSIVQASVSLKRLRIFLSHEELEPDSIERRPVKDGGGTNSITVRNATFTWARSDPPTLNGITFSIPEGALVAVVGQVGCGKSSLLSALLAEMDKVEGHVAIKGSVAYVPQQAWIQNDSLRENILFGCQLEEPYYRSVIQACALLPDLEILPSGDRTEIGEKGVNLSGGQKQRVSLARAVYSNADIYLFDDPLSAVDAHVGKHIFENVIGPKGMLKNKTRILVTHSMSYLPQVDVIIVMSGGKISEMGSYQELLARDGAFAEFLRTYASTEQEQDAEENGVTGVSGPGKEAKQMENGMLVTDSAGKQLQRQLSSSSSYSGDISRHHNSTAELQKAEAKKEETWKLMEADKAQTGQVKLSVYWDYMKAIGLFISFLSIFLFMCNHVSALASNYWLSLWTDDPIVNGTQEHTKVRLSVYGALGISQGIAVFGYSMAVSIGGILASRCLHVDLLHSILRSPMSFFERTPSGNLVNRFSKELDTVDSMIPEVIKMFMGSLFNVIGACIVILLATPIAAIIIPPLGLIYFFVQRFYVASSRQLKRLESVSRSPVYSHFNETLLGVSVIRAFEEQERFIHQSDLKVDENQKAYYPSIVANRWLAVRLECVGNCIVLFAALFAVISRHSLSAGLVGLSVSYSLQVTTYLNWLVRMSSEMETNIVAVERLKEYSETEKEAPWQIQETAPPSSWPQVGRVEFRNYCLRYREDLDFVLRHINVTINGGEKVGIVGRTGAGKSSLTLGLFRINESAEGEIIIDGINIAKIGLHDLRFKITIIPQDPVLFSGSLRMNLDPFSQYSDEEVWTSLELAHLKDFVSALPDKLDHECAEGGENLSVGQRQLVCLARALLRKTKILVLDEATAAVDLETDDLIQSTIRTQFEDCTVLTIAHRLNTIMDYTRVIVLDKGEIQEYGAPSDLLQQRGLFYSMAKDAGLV
Test: Reversal of MRP1-mediated drug resistant in human 2008/MRP1 cells assessed as potentiation of doxorubicin-induced cytotoxicity at 1 uM after 5 days by MTS assay
Format: cell-based
Conditions: 2008/mrp1, 120 h
// boundary case: fold change (FC) equal to 0.9 maps to Not met; strictly smaller maps to Met

{"smiles.repr": "COc1cc(OC)c2c(=O)c(OCCn3cnc4c(N)ncnc43)c(-c3ccc(OC)c(OC)c3)oc2c1", "discrete.label": "Met"}
{"smiles.repr": "C[C@@H]1O[C@@H](OC[C@H]2O[C@@H](Oc3c(-c4ccc(O)c(O)c4)oc4cc(O)cc(O)c4c3=O)[C@H](O)[C@@H](O)[C@@H]2O)[C@H](O)[C@H](O)[C@H]1O", "discrete.label": "Not met"}
{"smiles.repr": "COc1cc(OC)c2c(=O)c(OCCO)c(-c3ccc(OC)c(OC)c3)oc2c1", "discrete.label": "Met"}
{"smiles.repr": "COc1cc(OC)c2c(=O)c(OCc3cc(OC)c(OC)c(OC)c3)c(-c3ccc(OC)c(OC)c3)oc2c1", "discrete.label": "Not met"}
{"smiles.repr": "COc1cc(OC)c2c(=O)c(O)c(-c3ccc(OC)c(OC)c3)oc2c1", "discrete.label": "Met"}

Note: attention shifts to another entry.
Asked: Take the compound COc1cc(OC)c2c(=O)c(O[C@@H]3O[C@H](CO[C@@H]4O[C@@H](C)[C@H](OC)[C@@H](OC)[C@H]4OC)[C@@H](OC)[C@H](OC)[C@H]3OC)c(-c3ccc(OC)c(OC)c3)oc2c1 and say whether its fold change (FC) is less than 0.9.
Given back: Not met
